- Tested On: T1, human high affinity trimeric IL-2 receptor (CD25/CD122/CD132) (human, UniProt P01589 22-272; P14784 27-551; P31785 23-369)
- T1 sequence 1: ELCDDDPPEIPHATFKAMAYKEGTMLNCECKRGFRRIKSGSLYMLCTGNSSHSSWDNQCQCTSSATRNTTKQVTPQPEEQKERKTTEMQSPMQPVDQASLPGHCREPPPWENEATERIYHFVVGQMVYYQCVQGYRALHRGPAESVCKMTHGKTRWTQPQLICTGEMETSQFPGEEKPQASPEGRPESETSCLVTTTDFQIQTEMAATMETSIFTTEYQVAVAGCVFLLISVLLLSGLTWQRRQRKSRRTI
- T1 sequence 2: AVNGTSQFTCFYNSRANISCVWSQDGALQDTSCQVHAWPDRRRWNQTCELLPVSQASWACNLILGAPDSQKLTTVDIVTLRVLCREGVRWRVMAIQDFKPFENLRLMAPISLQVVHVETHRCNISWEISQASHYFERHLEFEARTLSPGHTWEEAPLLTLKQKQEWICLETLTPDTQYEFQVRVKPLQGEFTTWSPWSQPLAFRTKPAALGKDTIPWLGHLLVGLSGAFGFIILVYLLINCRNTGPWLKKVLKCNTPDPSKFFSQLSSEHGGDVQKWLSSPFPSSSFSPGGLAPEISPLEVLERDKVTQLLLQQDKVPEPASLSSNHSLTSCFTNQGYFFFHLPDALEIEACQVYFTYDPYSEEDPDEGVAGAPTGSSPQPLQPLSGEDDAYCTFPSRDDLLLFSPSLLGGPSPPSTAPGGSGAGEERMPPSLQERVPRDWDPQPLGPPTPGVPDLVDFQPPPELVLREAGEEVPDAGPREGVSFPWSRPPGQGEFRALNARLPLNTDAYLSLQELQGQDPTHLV
- T1 sequence 3: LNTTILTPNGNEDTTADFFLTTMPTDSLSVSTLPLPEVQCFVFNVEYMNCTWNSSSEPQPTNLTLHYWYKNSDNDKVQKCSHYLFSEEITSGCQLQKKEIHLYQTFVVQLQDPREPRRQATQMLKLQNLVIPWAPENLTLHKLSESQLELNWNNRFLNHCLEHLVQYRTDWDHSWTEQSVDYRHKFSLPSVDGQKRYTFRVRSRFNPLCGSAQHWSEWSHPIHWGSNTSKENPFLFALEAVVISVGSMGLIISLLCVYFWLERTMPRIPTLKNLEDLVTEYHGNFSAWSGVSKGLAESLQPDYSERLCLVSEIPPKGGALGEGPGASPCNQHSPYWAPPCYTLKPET
- Protocol Text: cell-based or functional assay
Measured pSTAT5 ratio YT CD25/YT, dilution factor 32, lower table accompanies every entry in the list below.
Observable: pSTAT5 ratio YT CD25/YT, dilution factor 32, lower table

RWH (ligand) cytokine: APTSSSTKKTQLQLEHLRLDLWMILNGINNYKNPKLTRMLTFKFYMPKKATELKHLQCLEEELKPLEEVLNLAQSKNFHLRPRDLISNINVIVLELKGSETTFMCEYADETATIVEFLNRWITFCHSIISTLT : 3
RNH (ligand) cytokine: APTSSSTKKTQLQLEHLRLDLNMILNGINNYKNPKLTRMLTFKFYMPKKATELKHLQCLEEELKPLEEVLNLAQSKNFHLRPRDLISNINVIVLELKGSETTFMCEYADETATIVEFLNRWITFCHSIISTLT : 5.2
